protocol notes: AUC in mouse at 2 mg/kg, po via gavage measured up to 24 hrs by LC-MS analysis
Format: ADME, organism-based
Design: time < 24 hr, dose 2 mg/kg, route oral
condition description: in vivo
measured metric: AUC at 24 h (µM·h)
Answer in µM·h, number only, no unit symbol.

Query: Requested read-out: AUC at 24 h. Entry: CC(C)Nc1cc(Nc2ccn3nccc3n2)ncc1C(=O)NC[C@@H](F)C(C)(C)O
Response: 0.9

* * *

protocol notes: Drug uptake in imiquimod-induced C57BL/6 mouse model of psoriasis at 0.3 mg/kg, po dosed via gavage twice daily and measured after 2 hrs by LC-MS analysis
Assay type: ADME, organism-based
condition description: in vivo, read-out: Drug uptake
measured metric: concentration at 2 h (nM)
Only the number, expressed in nM, is required.

Query: I am curious: what concentration at 2 h value has been reported for CC(C)Nc1cc(Nc2nc3ccnn3cc2F)ncc1C(=O)NC[C@@H](F)C(C)(C)O ?
Response: 42
